These entries and their values trace back to ChEMBL document CHEMBL1201862.

Listed here are compounds together with their documented GI50.
System: OVCAR-4
Experiment: NCI tumour cell line growth inhibition, 48 h
Activity calls are given as the source filed them. Rule as the data show it: active = GI50 up to about 1.1 µM and inactive = higher. Non-standard residues stand in square brackets, D forms with d. Residues, ends and D or L forms follow the SMILES beside them. *: point of attachment. Ac5c = NC1(C(=O)O)CCCC1; Boc = CC(C)(C)OC(=O)*; tBu = CC(C)(C)*

CCc1cccc(CC)c1NC(=O)C(C#N)C1=C(Cl)C(=O)c2ccccc2C1=O (stereo not drawn) has a reported GI50 of 16.6 µM (inactive)

COc1ccc(CN2C[C@H]3[C@@H](CC(=O)O[C@H]3C)CC2=O)cc1 has a reported GI50 of > 100 µM (inactive)

Cc1ccc(S(=O)(=O)N/N=C/C(=C/c2ccc(Cl)cc2)CC(/C=N/NS(=O)(=O)c2ccc(C)cc2)=C\c2ccc(Cl)cc2)cc1 has a reported GI50 of 5.42 µM (inactive)

FC(F)(F)c1nc(-c2ccccc2)oc1Sc1oc(-c2ccccc2)nc1C(F)(F)F has a reported GI50 of 19.7 µM (inactive)

Cc1cc(S(=O)(=O)Nc2nc(N)nc(N(C)C)n2)c(SCC(=O)O)cc1Cl has a reported GI50 of > 10 µM (inactive)

CC(=O)OC1=c2ccccc2=C(O)C2C1C=NN2C(C)=O (stereo not drawn) has a reported GI50 of > 100 µM (inactive)

COC(=O)C1=C(c2ccc(Cl)cc2)C(O)NC(NN)=N1 (stereo not drawn) has a reported GI50 of > 100 µM (inactive)

N#Cc1nn(C2OC(COC(=O)c3ccccc3)C(OC(=O)c3ccccc3)C2OC(=O)c2ccccc2)c2nc[nH]c(=O)c12 (stereo not drawn) has a reported GI50 of 38.3 µM (inactive)

CC(OC(C)(C)C)C1NC(=O)C(CCCCNC(=O)OC(C)(C)C)NC(=O)C(Cc2c[nH]c3ccccc23)NC(=O)C(Cc2ccccc2)NC(=O)C2(CCCC2)NC(=O)C(Cc2ccccc2)NC1=O (stereo not drawn) (cyclo([Ac5c]FWK(Boc)T(tBu)F); configuration not given here) has a reported GI50 of 49.9 µM (inactive)

O=C(O)C(Cc1ccc2c(c1)CCC2)(Cc1ccc2c(c1)CCC2)C(=O)O has a reported GI50 of > 100 µM (inactive)

CCOP(=O)(OCC)/C(C#N)=C/c1ccco1 has a reported GI50 of > 100 µM (inactive)

CC(C)(C)OC(=O)CN1CCN(CC(=O)N2CCN(C(=O)OCc3ccccc3)CC2)CCN(CC(=O)OC(C)(C)C)CCN(CC(=O)N2CCN(C(=O)OCc3ccccc3)CC2)CC1 has a reported GI50 of 2.73 µM (inactive)

O=C(CSc1nnc(Cc2ccccc2)o1)Nc1ccc([N+](=O)[O-])cc1 has a reported GI50 of > 100 µM (inactive)

O=[N+]([O-])c1ccc(-c2ccc(-c3csc(Nc4ccccc4)n3)o2)cc1 has a reported GI50 of 17.3 µM (inactive)

Cn1c2ccccc2c(=NNc2cccc(C(=O)O)c2)c2ccccc21 has a reported GI50 of 12.4 µM (inactive)

Cc1nnc(N)nc1C/C=C/C(Sc1ccc(Cl)cc1)c1ccccc1 (stereo not drawn) has a reported GI50 of 4.94 µM (inactive)

O=C(/C=C1\Nc2ccccc2N\C1=C/C(=O)c1ccc(F)cc1)c1ccc(F)cc1 has a reported GI50 of > 100 µM (inactive)

COc1cc(CNC(=O)CCCCCCCCCCSC#N)ccc1O has a reported GI50 of 25 µM (inactive)
